assay-system: kinase panel containing either 359 or 386 distinct kinases
procedure-details: Selectivity score S10 from competition binding against a panel of kinases
experimental-conditions: compounds at 10 μM; panel of 386 distinct kinases
measure-name: Kinase specificty: S(10)-386 panel

{"compound": "CC(C)(C)c1cc(NC(=O)Cc2ccc(-c3ccc(N)nc3F)cc2)on1.CS(=O)(=O)O", "observed-result": "A (A≦0.1)"}
{"compound": "CC(F)(F)C1(c2cc(NC(=O)Cc3ccc(-c4ccc(N)nc4)cc3)no2)CC1", "observed-result": "B (0.1<B≦0.2 nM)"}
{"compound": "CC1(c2cc(NC(=O)Nc3ccc(-c4ccc(N)nc4)cc3)no2)CC1(F)F.CS(=O)(=O)O (stereo not shown)", "observed-result": "A (A≦0.1)"}
{"compound": "CC(C)(C)c1cc(NC(=O)Cc2ccc(-c3cnc(N)c(Cl)c3)cc2)no1.CS(=O)(=O)O", "observed-result": "B (0.1<B≦0.2 nM)"}
